# Test Target: Bifunctional epoxide hydrolase 2 (Homo sapiens, UniProt P34913)
# Sequence (P34913 whole entry): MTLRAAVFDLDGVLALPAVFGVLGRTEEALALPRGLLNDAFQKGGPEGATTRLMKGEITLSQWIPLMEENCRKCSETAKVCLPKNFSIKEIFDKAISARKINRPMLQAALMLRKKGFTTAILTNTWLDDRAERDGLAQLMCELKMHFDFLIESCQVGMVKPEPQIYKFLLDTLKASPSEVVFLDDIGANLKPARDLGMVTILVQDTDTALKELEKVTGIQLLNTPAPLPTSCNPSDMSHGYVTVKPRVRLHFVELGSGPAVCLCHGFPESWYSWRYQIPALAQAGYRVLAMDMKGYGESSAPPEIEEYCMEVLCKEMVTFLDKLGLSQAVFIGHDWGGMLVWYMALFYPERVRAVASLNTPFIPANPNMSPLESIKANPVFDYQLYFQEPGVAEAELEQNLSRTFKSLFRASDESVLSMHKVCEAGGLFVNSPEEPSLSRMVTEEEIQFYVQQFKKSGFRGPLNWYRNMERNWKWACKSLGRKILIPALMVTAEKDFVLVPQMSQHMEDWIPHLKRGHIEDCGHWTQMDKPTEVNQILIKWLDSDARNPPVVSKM
# Assay Details: Inhibition of recombinant human sEH using PHOME as substrate measured after 15 mins by fluorescence assay
Threshold 20 nM. IC50 below it: satisfied. IC50 at it or above: not satisfied.

Ask: In plain terms, does `CCc1ccc(NC(=O)N(CCN2CCOCC2)c2ccc3nc(NC(=O)Cc4ccccc4F)sc3c2)cc1` come in under 20 nM for IC50?
Reply: satisfied

Ask: In plain terms, does `O=C(Cc1ccccc1)Nc1nc2ccc(N(CCN3CCOCC3)C(=O)Nc3ccc(Cl)cc3)cc2s1` come in under 20 nM for IC50?
Reply: satisfied

Ask: In plain terms, does `Cc1ccc(NC(=O)N(CCN2CCOCC2)c2ccc3nc(N)sc3c2)cc1` come in under 20 nM for IC50?
Reply: satisfied

Ask: In plain terms, does `Nc1nc2ccc(NC(=O)NC3CCCCC3)cc2s1` come in under 20 nM for IC50?
Reply: satisfied

Ask: In plain terms, does `Nc1nc2ccc(N(CCN3CCOCC3)C(=O)Nc3ccc(Cl)cc3)cc2s1` come in under 20 nM for IC50?
Reply: satisfied

Ask: In plain terms, does `CC(C)c1ccc(NC(=O)N(CCN2CCOCC2)c2ccc3nc(N)sc3c2)cc1` come in under 20 nM for IC50?
Reply: satisfied

Ask: In plain terms, does `Nc1nc2ccc(NC(=O)NC34CC5CC(CC(C5)C3)C4)cc2s1` come in under 20 nM for IC50?
Reply: not satisfied

Ask: In plain terms, does `Nc1nc2ccc(N(CCN3CCOCC3)C(=O)Nc3cccc4ccccc34)cc2s1` come in under 20 nM for IC50?
Reply: not satisfied

Ask: In plain terms, does `Cc1cccc(NC(=O)N(CCN2CCOCC2)c2ccc3nc(N)sc3c2)c1` come in under 20 nM for IC50?
Reply: not satisfied

Ask: In plain terms, does `CCN(CC)CCN(C(=O)Nc1ccc(Cl)cc1)c1ccc2nc(N)sc2c1` come in under 20 nM for IC50?
Reply: not satisfied

Ask: In plain terms, does `CC(C)Oc1ccc(NC(=O)N(CCN2CCOCC2)c2ccc3nc(N)sc3c2)cc1` come in under 20 nM for IC50?
Reply: not satisfied

Ask: In plain terms, does `Nc1nc2ccc(NC(=O)Nc3ccc(Cl)cc3)cc2s1` come in under 20 nM for IC50?
Reply: satisfied

Ask: In plain terms, does `CCc1ccc(NC(=O)N(CCN2CCOCC2)c2ccc3nc(N)sc3c2)cc1` come in under 20 nM for IC50?
Reply: satisfied

Ask: In plain terms, does `Nc1nc2ccc(N(CCN3CCCCC3)C(=O)Nc3ccc(Cl)cc3)cc2s1` come in under 20 nM for IC50?
Reply: satisfied

Ask: In plain terms, does `O=C(Nc1ccc(Cl)cc1)Nc1nc2ccc(N(CCN3CCOCC3)C(=O)Nc3ccc(Cl)cc3)cc2s1` come in under 20 nM for IC50?
Reply: satisfied

Ask: In plain terms, does `Nc1nc2ccc(N(CCN3CCOCC3)C(=O)Nc3ccc(Br)cc3)cc2s1` come in under 20 nM for IC50?
Reply: satisfied

Ask: In plain terms, does `O=C(Cc1ccccc1F)Nc1nc2ccc(N(CCN3CCOCC3)C(=O)Nc3ccc(Cl)cc3)cc2s1` come in under 20 nM for IC50?
Reply: satisfied

Ref: ChEMBL document CHEMBL4706628
